- test-name: OD615 S. cerevisiae growth inhibition, permissive medium, pilot counter-assay, permissive growth control for S. cerevisiae lifespan shortening project (AID 705)
- conditions: OD615, 24 h, at 10 µM, active compounds read high
Non-standard residues stand in square brackets, D forms with d. Residues, ends and D or L forms follow the SMILES beside them. ξ: configuration not given here. *: point of attachment. Cbz = O=C(OCc1ccccc1)*; ξV = CC(C)C(N)C(=O)O; OtBu = CC(C)(C)O*
quantity-measured: growth inhibition (%)

>>> test_value("COc1ccc(OC)c(C2CC(=O)N3CN(c4cccc(Cl)c4C)CSC3=C2C#N)c1 (centres undefined)")
2.17
>>> test_value("COc1cc(C)c(C)cc1S(=O)(=O)N1CCN(Cc2ccccc2)CC1")
9.11
>>> test_value("COC(=O)CNC(=O)Cn1cnc2sc(C)c(S(=O)(=O)N3CCC(C)CC3)c2c1=O")
-2.79
>>> test_value("CCOC(=O)C(C(=O)Nc1cccc(C)n1)C1CCCCC1 (centres undefined)")
-6.76
>>> test_value("NC(=O)C1CCN(C(=O)CCCCCn2c(=O)[nH]c3ccsc3c2=O)CC1")
-14
>>> test_value("CCN(CC)S(=O)(=O)c1ccc(C2CNC(=O)C2)cc1 (centres undefined)")
-6.66
>>> test_value("Cc1ccc(C)c2c1sc(=NC(=O)CN1C(=O)CCC1=O)n2C")
-15
>>> test_value("O=C(NC1CCCCC1)C1CCN(S(=O)(=O)c2cccc3cccnc23)CC1")
4.71
>>> test_value("CC(=O)c1ccc(OCC(O)CN2CCOCC2)cc1 (centres undefined)")
-11.4
>>> test_value("CC(=O)N(c1ccc(C)cc1)C1C=CS(=O)(=O)C1 (centres undefined)")
-8.96
>>> test_value("COc1cc2c(cc1OC)C(c1cccs1)NCC2 (centres undefined)")
-10.4
>>> test_value("CN(Cc1ccccc1)C(=O)CCn1c(=O)oc2ccccc21")
2.31
>>> test_value("COc1ccc(N2C(=O)CCC(C(=O)N3CCC(C(N)=O)CC3)C2c2ccc(F)cc2)cc1 (centres undefined)")
-5.89
>>> test_value("CC(NC(=O)COc1ccccc1)C(c1ccccc1)N1CCN(C)CC1 (centres undefined)")
-4.2
>>> test_value("Cc1c(N=c2c(=O)c3ccccc3c2=O)c(=O)n(-c2ccccc2)n1C")
-15.7
>>> test_value("CN1C(=O)CS(=O)c2ccc(C(=O)NC3CC3)cc21 (centres undefined)")
1.7
>>> test_value("Cc1oc(-c2ccc(Cl)cc2)nc1CN1CCC(C(=O)N2CCc3ccccc3C2)CC1")
-4.91
>>> test_value("O=C(CSc1ccc2nnc(-c3ccc(Cl)cc3)n2n1)N1CCCC1")
-1.01
>>> test_value("CCOc1ccc(-c2cc(CCCC(=O)Nc3cccc(OC)c3)no2)cc1")
-6.04
>>> test_value("COc1ccc(CSc2nnnn2C)cc1F")
-3.21
>>> test_value("COC(=O)CCC(=O)Oc1ccc(OC(=O)CCC(=O)OC)cc1")
7.12
>>> test_value("CN(C)c1ccnc2sc(C(=O)NCc3ccccc3)c(N)c12")
-17.2
>>> test_value("COc1ccc(NC(=O)N(Cc2ccc(C)cc2)Cc2ccccn2)c(OC)c1")
-3.04
>>> test_value("O=C(O)CCCCCN1C(=O)c2ccc(C(=O)O)cc2C1=O")
-14.4
>>> test_value("CC(=O)C(Sc1ccc2nnc(-c3ccc(C)cc3)n2n1)C(C)=O")
1.31
>>> test_value("C=CCn1c(=O)[nH]c2cc(C(=O)N3CCN(c4cccc(Cl)c4)CC3)ccc2c1=O")
-16.5
>>> test_value("COCCCNC(=O)Cn1nnc(-c2ccc(NC(=O)c3ccc(F)cc3)cc2)n1")
-9.11
>>> test_value("COc1ccc(CN2CCN(c3cccc(C)c3C)CC2)cc1OC")
-8.54
>>> test_value("Cc1cc(Nc2ccccc2Br)n2nc(C)nc2n1")
-3.05
>>> test_value("CN(C(=O)c1ccc(=O)[nH]c1)C1(C(=O)NC2CCCCC2)CCCCC1")
-7.84
>>> test_value("Cc1ccc(C(=O)c2cn[nH]c2-c2cc(Cl)ccc2O)cc1")
7.61
>>> test_value("O=C(NCc1ccccc1)c1cc(S(=O)(=O)N2CCOCC2)ccc1F")
-3.95
>>> test_value("CCN=C(NCC)SC1CC(=O)N(c2cccc(OC)c2)C1=O (centres undefined)")
5.98
>>> test_value("Cc1ccc(Cc2c(C)nc3nc(SCC(=O)NCc4ccco4)nn3c2C)cc1")
10.4
>>> test_value("COCCN(CCOC)Cc1c(O)ccc2c3c(c(=O)oc12)CCC3")
-1.66
>>> test_value("COc1cc(CNC(=O)OCC(C)C)cc(OC)c1OC")
-11.4
>>> test_value("Brc1ccc2ncnc(NCc3ccco3)c2c1")
2.37
>>> test_value("Cc1cc(N2CCOCC2)nc2cc(O)ccc12")
-10.3
>>> test_value("CC(C)C(NC(=O)OCc1ccccc1)C(=O)NCC(=O)OC(C)(C)C (centres undefined) (Cbz-[ξV]-Gly-OtBu)")
-5.84

----------
- test-name: growth suppression of yeast trafficking mutant, preliminary HTS, modulators of trafficking downstream of Golgi apparatus project, 1536-format plate, OD 615 nm (AID 637)
- conditions: yeast transport mutant growth, absorbance 615 nm, 18 h; active compounds read high
quantity-measured: inhibition (%)

>>> test_value("CCCCSc1cc(C)nc2ncnn12")
-0.67
>>> test_value("CN(Cc1ccccc1)C(=O)CNC(=O)Cn1cnc2ccccc2c1=O")
-5.71
>>> test_value("CCN1CCN(S(=O)(=O)c2ccc(S(=O)(=O)N(CC)Cc3ccccc3)cc2)CC1")
-1.13
>>> test_value("Cc1noc(C)c1C(=O)Nc1ccc(Cl)cc1C(F)(F)F")
3.11
>>> test_value("Cc1cc(Cl)ccc1OCCCC(=O)N1CCOCC1")
11.2
>>> test_value("CCS(=O)(=O)N1CCC(C(=O)NCCc2ccc(C)cc2)CC1")
-9.68
>>> test_value("C#CC(CO)N(CCN(Cc1ccccc1)C(C#C)CO)Cc1ccccc1 (stereo not drawn)")
1.5
>>> test_value("CCOCCCNC(=O)C1CCC(=O)N1CCc1ccccc1 (stereo not drawn)")
-5.32
>>> test_value("CCN(CC)S(=O)(=O)c1ccc(Br)c(OC)c1")
-2.13
>>> test_value("COc1cc2[nH]c(=O)n(CCC(=O)N3CCc4ccccc4C3)c(=O)c2cc1OC")
-2.33
>>> test_value("Cc1ccc(-c2nn(C)c(=O)c3ccccc23)cc1S(=O)(=O)NCCN1CCOCC1")
-6.35
>>> test_value("COc1ccc(CNC(=O)c2cc3c(=O)n4ccccc4nc3n(Cc3ccco3)c2=N)cc1")
-5.08
>>> test_value("CC(C)N(C=O)C1(C(=O)NC2CCCCC2)CCCCC1")
-6.61
>>> test_value("CCOc1ccccc1C(=O)NC(C)c1ccc2c(c1)OCO2 (stereo not drawn)")
-4.26
>>> test_value("CCOC(=O)/N=C(/NC(=O)Nc1ccc(C(=O)OCC)cc1)OC")
5.4
>>> test_value("CC(=O)N1C(=O)N(C)C2C1N(C(C)=O)C(=O)N2C (stereo not drawn)")
-6.45
>>> test_value("CCCC(=O)Nc1nnc(CC(=O)OCC)s1")
-7.14
>>> test_value("COCCn1c(=NC(=O)CSC(C)=O)sc2cc(F)ccc21")
-2.86
>>> test_value("CCN(CCO)C1CC(=O)N(c2ccccc2C)C1=O (stereo not drawn)")
-2
>>> test_value("c1coc(-c2nnc(NC3=NCCC3)o2)c1")
-10.2
>>> test_value("COc1ccc(-n2c(Cc3cccn3C)nnc2SCC(=O)Nc2cccc(OC)c2)cc1")
0
>>> test_value("COC(=O)C(C)Sc1nc2c(c(=O)n(C)c(=O)n2C)n1Cc1cccc(C)c1 (stereo not drawn)")
-0.32
>>> test_value("CC(Oc1ccc(Br)cc1)C(=O)N1CCc2ccccc21 (stereo not drawn)")
-3.02
>>> test_value("O=C(NCc1ccco1)C1CCN(S(=O)(=O)N2CCC3(CC2)OCCO3)CC1")
-7.17
>>> test_value("CCCCN(CCCC)C(=O)CN(C)S(=O)(=O)c1ccc2c(c1)n(C)c(=O)c(=O)n2C")
2.38
>>> test_value("COc1ccc(C(=O)N2CCCc3ccccc32)cc1")
5.81
>>> test_value("Cc1csc2nc3ccccc3c(=O)n12")
1.31
>>> test_value("O=C(CN1CCN(c2cccc(Cl)c2)CC1)N1CCCC1")
-7.46
>>> test_value("Cc1ccc(Cn2c(C(=O)NCCCN3CCOCC3)cc3sccc32)cc1")
-1.27
>>> test_value("Cn1c2c(c(=O)n(C)c1=O)C(c1cccc(Br)c1)C1C(=O)c3ccccc3C1=N2 (stereo not drawn)")
1.43
>>> test_value("COc1ccc(/C(O)=C2/C(=O)C(=O)N(CCCN(C)C)C2c2ccc(Cl)cc2)cc1OC (stereo not drawn)")
-3.39
>>> test_value("C=CCSC1=C(C#N)C(c2ccccc2OCC)CC(=O)N1 (stereo not drawn)")
0.5
>>> test_value("Cc1nn(-c2ccccc2)c2c1C(c1c(C)[nH]c(C#N)c1C)C(C#N)=C(N)O2 (stereo not drawn)")
-5.25
>>> test_value("c1ccc(CC2CCN(C(c3cccs3)c3nnnn3C3CCCC3)CC2)cc1 (stereo not drawn)")
-0.63
>>> test_value("CCN(C(=O)Cc1c(C(=O)O)[nH]c2ccccc12)c1cc(OC)ccc1OC")
4.5
>>> test_value("Cc1noc(C)c1S(=O)(=O)N1CCC(C(=O)N2CCN(Cc3ccc4c(c3)OCO4)CC2)CC1")
-0.63
>>> test_value("Cc1cc(C)n(-c2nc3c(c(=O)n(Cc4ccc(Cl)c(Cl)c4)c(=O)n3C)n2C)n1")
-3.65
>>> test_value("O=C(Cn1cccc1C(=O)c1ccccc1)NCCN1CCOCC1")
0.97
